experiment-description: qHTS Assay for Enhancers of SMN2 Splice Variant Expression; note: nearly all actives have a fitted effect of over 55% in size; note: potency is the fitted concentration of half-maximal effect
recorded-conditions: HEK293 SMN2-luciferase splicing reporter, luminescence, 30-36 h; series mostly up to 46.1 µM
Out of some 210,000 compounds screened, about 5,900 (2.8%) were called active. About 5% were inconclusive and are not listed. For the sample, actives were picked, then their nearest neighbours and some compounds at random.
measured-metric: Potency

INSERT INTO measurements (compound, result) VALUES
  ('Cc1ccc(-c2cn3cc(C)ccc3n2)cc1', 'inactive'),
  ('Cc1ccnc(NC(=O)c2ccc(NC(=O)c3ccco3)cc2)c1', '10 µM (active)'),
  ('Cc1ccc(C(C(=O)NCc2ccco2)N(CC2CCCO2)C(=O)Cn2nnc3ccccc32)cc1 (configuration not stated)', 'inactive'),
  ('O=C(c1ccc2c(c1)N(Cc1ccc(Cl)cc1)C(=O)c1ccccc1S2(=O)=O)N1CCCCC1', 'inactive'),
  ('Cc1occc1C(=O)Nc1nnc(-c2ccncc2)s1', 'inactive'),
  ('c1ccc(-c2cn3cccnc3n2)cc1', 'inactive'),
  ('CCc1ccccc1NC(=O)N1CCC2(CC1)Oc1ccccc1C(=O)N2Cc1ccccc1F', 'inactive'),
  ('Cc1cccc(NC(=O)C2CCCN2S(=O)(=O)c2cccc3nsnc23)c1C (configuration not stated)', 'inactive'),
  ('Cc1ccnc(NC(=O)CCCOc2ccccc2)c1', 'inactive'),
  ('O=c1c(-c2ccccc2)coc2cc(O)ccc12', '22.4 µM (active)'),
  ('COc1ccc(CNC(=O)CC2Oc3ccc(C)cc3NC2=O)cc1 (configuration not stated)', 'inactive'),
  ('Cc1cc(NC(=O)C2CCC(CNS(=O)(=O)c3ccc(Br)s3)CC2)ccc1Br (configuration not stated)', 'inactive'),
  ('Cc1c(O)cc(O)c2c(=O)c(-c3ccc(O)cc3)coc12', 'inactive'),
  ('O=C(CCS(=O)(=O)c1ccccc1)Nc1nc2c(s1)CCCC2', 'inactive'),
  ('Fc1ccc2nc(Nc3nc4c(s3)CCCC4)sc2c1', '14.1 µM (active)'),
  ('COc1cc(SC)ccc1C(=O)Nc1nc(C)cs1', 'inactive'),
  ('CCC1=Nc2cc(C(=O)NCC(C)c3ccccc3)ccc2Sc2ccc(C)cc21 (configuration not stated)', 'inactive');
